condition-details: in n-propanol, 323.15 K
measured-attribute: solubility (mole fraction)
Would you mind answering with just the numeric figure?

Inquiry: Look at this compound and give its reported solubility (mole fraction). `O=C(O)c1cc([N+](=O)[O-])cc([N+](=O)[O-])c1O`
Reply text: 0.111

---

condition-details: in isopropanol, 293.15 K
measured-attribute: solubility (mole fraction)
Would you mind answering with just the numeric figure?

Inquiry: Look at this compound and give its reported solubility (mole fraction). `O=C(O)c1cc([N+](=O)[O-])cc([N+](=O)[O-])c1O`
Reply text: 0.0402

---

condition-details: in DMSO, 308.15 K
measured-attribute: solubility (mole fraction)
Would you mind answering with just the numeric figure?

Inquiry: Look at this compound and give its reported solubility (mole fraction). `O=C(O)c1cc([N+](=O)[O-])cc([N+](=O)[O-])c1O`
Reply text: 0.114

---

condition-details: in n-propanol, 278.15 K
measured-attribute: solubility (mole fraction)
Would you mind answering with just the numeric figure?

Inquiry: Look at this compound and give its reported solubility (mole fraction). `O=C(O)c1cc([N+](=O)[O-])cc([N+](=O)[O-])c1O`
Reply text: 0.0364

---

condition-details: in n-propanol, 283.15 K
measured-attribute: solubility (mole fraction)

Inquiry: Look at this compound and give its reported solubility (mole fraction). `O=C(O)c1cc([N+](=O)[O-])cc([N+](=O)[O-])c1O`
Reply text: 0.0403

---

condition-details: in ethanol, 278.15 K
measured-attribute: solubility (mole fraction)
Would you mind answering with just the numeric figure?

Inquiry: Look at this compound and give its reported solubility (mole fraction). `O=C(O)c1cc([N+](=O)[O-])cc([N+](=O)[O-])c1O`
Reply text: 0.0465

---

condition-details: in ethylene glycol, 303.15 K
measured-attribute: solubility (mole fraction)
Would you mind answering with just the numeric figure?

Inquiry: Look at this compound and give its reported solubility (mole fraction). `O=C(O)c1cc([N+](=O)[O-])cc([N+](=O)[O-])c1O`
Reply text: 0.0476

---

condition-details: in n-propanol, 298.15 K
measured-attribute: solubility (mole fraction)
Would you mind answering with just the numeric figure?

Inquiry: Look at this molecule and give its reported solubility (mole fraction). `O=C(O)c1cc([N+](=O)[O-])cc([N+](=O)[O-])c1O`
Reply text: 0.0597

---

condition-details: in cyclohexane, 313.15 K
measured-attribute: solubility (mole fraction)

Inquiry: Look at this molecule and give its reported solubility (mole fraction). `O=C(O)c1cc([N+](=O)[O-])cc([N+](=O)[O-])c1O`
Reply text: 0.0104

---

condition-details: in NMP, 303.15 K
measured-attribute: solubility (mole fraction)
Would you mind answering with just the numeric figure?

Inquiry: Look at this compound and give its reported solubility (mole fraction). `O=C(O)c1cc([N+](=O)[O-])cc([N+](=O)[O-])c1O`
Reply text: 0.166

---

condition-details: in DMSO, 318.15 K
measured-attribute: solubility (mole fraction)
Would you mind answering with just the numeric figure?

Inquiry: Look at this molecule and give its reported solubility (mole fraction). `O=C(O)c1cc([N+](=O)[O-])cc([N+](=O)[O-])c1O`
Reply text: 0.149

---

condition-details: in n-butanol, 323.15 K
measured-attribute: solubility (mole fraction)
Would you mind answering with just the numeric figure?

Inquiry: Look at this compound and give its reported solubility (mole fraction). `O=C(O)c1cc([N+](=O)[O-])cc([N+](=O)[O-])c1O`
Reply text: 0.0592
